Cited source: ChEMBL document CHEMBL5380869

experimentDescription: Clearance in CD1 mouse at 1 mg/kg, iv administered as bolus dose
Type: ADME, organism-based
testParameters: in vivo
experimentalReadout: clearance (mL/min/kg)

• COc1nn(C)cc1C(=O)N[S@@]1(=O)=NC(=O)c2ccc3c(c2)N(C[C@@H]2CCO[C@H]2[C@@H](OC)/C(F)=C/C[C@H](C)C1)C[C@@]1(CCCc2cc(Cl)ccc21)CO3 = 25

====

experimentDescription: Inhibition of terbium-labelled Mcl-1 (unknown origin)/Bim BH3 peptide (H3N-(C/Cy5Mal)-WIAQELRRIGDEFN-OH) (unknown origin) interaction assessed as displacement of Cy5-labeled Bim BH3 peptide by TR-HTRF assay
experimentalReadout: log10 Ki (log10 of the value in pM)

- COc1nn(C)cc1C(=O)N[S@]1(=O)=NC(=O)c2ccc3c(c2)N(C[C@@H]2CCO[C@H]2[C@H](OC)/C(F)=C/C[C@H](C)C1)C[C@@]1(CCCc2cc(Cl)ccc21)CO3: 1.40
- C[C@@H]1[C@@H](C)C/C=C(\F)[C@@](O)(CC#N)[C@@H]2OCC[C@H]2CN2C[C@@]3(CCCc4cc(Cl)ccc43)COc3ccc(cc32)C(=O)NS1(=O)=O: 3.37
- CO[C@H]1/C(F)=C/C[C@H](C)[C@@H](C)S(=O)(=O)NC(=O)c2ccc3c(c2)N(C[C@@H]2CCO[C@H]21)C[C@@]1(CCCc2cc(Cl)ccc21)CO3: 2.34
- CO[C@@]1(CN2CCN3CCOC[C@@H]3C2)/C(F)=C/C[C@H](C)[C@@H](C)S(=O)(=O)NC(=O)c2ccc3c(c2)N(C[C@@H]2CCO[C@H]21)C[C@@]1(CCCc2cc(Cl)ccc21)CO3: 1.15
- CO[C@H]1/C=C/C[C@H](C)[C@@H](C)S(=O)(=O)NC(=O)c2ccc3c(c2)N(C[C@@H]2CCO[C@H]21)C[C@@]1(CCCc2cc(Cl)ccc21)CO3: 2.67
